Overview of recorded pKd for various molecules
- test_system: SL1 wt RNA
- method: NMR-based KD estimation, ligand-detected 1D-1H titration
- Type: binding, SARS-CoV-2
- condition_description: Suppl. Table 7; ligand constant at 100, SL1 wt RNA concentration 0-250; read-out: KDest
As a rule, pKd stands for the negative log10 of the concentration, concentration in M.

Reference set, count: 6
molecule="CNC(=N)Nc1nc2ccc(O)cc2s1 [A.9]" measurement=3.36
molecule="CC(C)(C)C(=O)Nc1nc2ccc(Br)cc2s1 [A.8]" measurement=3.60
molecule="CC(=O)c1ccc(NC(=O)CN2CCCC2)cc1 [B]" measurement=3.83
molecule="CNC(=O)Nc1nc2ccc(OC)cc2s1 [A]" measurement=3.87
molecule="COc1ccc2nc(NC(=O)CN(C)C)sc2c1 [A.2]" measurement=3.84
molecule="CNC(=N)Nc1nc2ccc(OC)cc2s1 [A.4]" measurement=3.99

Record lookup: for SL1 wt RNA, what pKd belongs to CNC(=O)Nc1nc2c(O)cc(O)cc2s1 [A.13] ?
3.51
